# pEC50 annotations
# System name: human CMKLR1 (Homo sapiens)
# Construct: host or cells: HEK293A (Invitrogen), stably expressing human Gα15
# Experiment: Ca2+ mobilization (CellLux imaging) agonist assay in HEK293A cells expressing CMKLR1 and Gα15
# Format: cell-based
# Condition info: Ca2+ mobilization, CMKLR1; decimal comma; NR where no EC50 is given; read-out: EC50
# Description: HEK293A cells (Invitrogen) expressing CMKLR1 and Gα15 were seeded at 5*10^4 cells/well in a poly-D-lysine coated 96-well black well/clear bottom plate (BD Falcon) and cultured overnight. From eighteen to twenty-four hours later, cells were loaded with FLUO4-AM (Invitrogen). […] Fluorescence data was generated in duplicate and experiments were repeated for at least three times. […] Signals were normalized to background fluorescence. […]
pEC50: −log10 of the molar value. Ends that are not written are not given here.
Experimental endpoint: pEC50

> print(dat)
                      substance  numeric.readout
 1  YYPGQYAYS-NH2 [compound 17]             5.36
 2  FLFGFQFAY-OH [compound 109]             5.78
 3   FLPGQFLPG-OH [compound 63]             6.26
 4   YFPGQWAWS-NH2 [compound 9]             5.73
 5   FLPGALGFF-OH [compound 60]             6.39
 6   YLPGYLPGH-OH [compound 77]             3.66
 7  WFPGQYAYS-NH2 [compound 23]             4.68
 8   FLPGQFAFK-OH [compound 67]             5.91
 9   YFPGQYAFF-NH2 [compound 1]             7.82
10   FLPGQFAFS-NH2 [compound 3]             7.38
11   FLPPQFAFF-OH [compound 73]             5.52
12   YLPGQGAFK-OH [compound 69]             5.73
13   FLPGQPYFL-OH [compound 65]             6.15
14   YLPGQFAFL-OH [compound 39]             8.23

====

# Experiment: In vitro peptide stability in human serum (RP-HPLC)
# Condition info: human, human serum, 25% (v/v) in RPMI
Square brackets hold non-standard residues; d marks the D form. Peptide text beside a SMILES is read from it.

Molecule	half-life at 50 µg/mL
CC(C)C[C@H](NC(=O)[C@H](N)Cc1ccccc1)C(=O)N1CCC[C@H]1C(=O)NCC(=O)N[C@@H](CCC(N)=O)C(=O)N[C@@H](Cc1ccc(O)cc1)C(=O)N[C@@H](C)C(=O)N[C@@H](Cc1ccccc1)C(=O)N[C@@H](Cc1ccccc1)C(=O)O [compound 55] (H-[dF]LPGQYAFF-OH; N-terminus assumed)	230 min
CC(C)C[C@H](NC(=O)[C@@H](N)Cc1ccc(O)cc1)C(=O)N1CCC[C@H]1C(=O)NCC(=O)N[C@@H](CCC(N)=O)C(=O)N[C@@H](C)C(=O)N[C@H](Cc1ccccc1)C(=O)N[C@@H](Cc1ccccc1)C(=O)N[C@@H](CCCCN)C(=O)O [compound 78] (H-YLPGQA[dF]FK-OH; N-terminus assumed)	24 min
CC(C)C[C@H](NC(=O)[C@H](N)Cc1ccccc1)C(=O)N1CCC[C@H]1C(=O)NCC(=O)N[C@@H](CCC(N)=O)C(=O)N[C@@H](Cc1ccc(O)cc1)C(=O)N[C@@H](C)C(=O)N[C@@H](Cc1ccccc1)C(=O)N[C@H](Cc1ccccc1)C(=O)O [fLPGQYAFf] (H-[dF]LPGQYAF[dF]-OH; N-terminus assumed)	1160 min
NC(=O)CC[C@H](NC(=O)CNC(=O)[C@@H]1CCCN1C(=O)[C@H](Cc1ccccc1)NC(=O)[C@H](N)Cc1ccc(O)cc1)C(=O)N[C@@H](Cc1ccc(O)cc1)C(=O)N[C@H](Cc1c[nH]c2ccccc12)C(=O)N[C@@H](Cc1ccccc1)C(=O)N[C@H](Cc1ccccc1)C(=O)O [compound 133] (H-[dY]FPGQY[dW]F[dF]-OH; N-terminus assumed)	20 min
CC(C)C[C@@H](NC(=O)[C@H](CCCNC(=N)N)NC(=O)[C@@H](N)Cc1ccc(O)cc1)C(=O)NCC(=O)N[C@@H](CCC(N)=O)C(=O)N[C@@H](Cc1ccc(O)cc1)C(=O)N[C@H](Cc1c[nH]c2ccccc12)C(=O)N[C@H](CC(=O)O)C(=O)N[C@H](Cc1ccccc1)C(=O)O [compound 129] (H-YR[dL]GQY[dW][dD][dF]-OH; N-terminus assumed)	32 min
CC(C)C[C@H](NC(=O)[C@@H](N)Cc1ccc(O)cc1)C(=O)N1CCC[C@H]1C(=O)NCC(=O)N[C@@H](CCC(N)=O)C(=O)N[C@@H](Cc1ccccc1)C(=O)N[C@H](Cc1ccccc1)C(=O)N[C@@H](Cc1ccccc1)C(=O)N[C@@H](CO)C(=O)O [compound 28] (H-YLPGQF[dF]FS-OH; N-terminus assumed)	24 min

====

# System name: human CMKLR1 (Homo sapiens, UniProt Q99788)
# Construct: host or cells: HEK293A (Invitrogen), stably expressing human Gα15
# Sequence (Q99788 1-373): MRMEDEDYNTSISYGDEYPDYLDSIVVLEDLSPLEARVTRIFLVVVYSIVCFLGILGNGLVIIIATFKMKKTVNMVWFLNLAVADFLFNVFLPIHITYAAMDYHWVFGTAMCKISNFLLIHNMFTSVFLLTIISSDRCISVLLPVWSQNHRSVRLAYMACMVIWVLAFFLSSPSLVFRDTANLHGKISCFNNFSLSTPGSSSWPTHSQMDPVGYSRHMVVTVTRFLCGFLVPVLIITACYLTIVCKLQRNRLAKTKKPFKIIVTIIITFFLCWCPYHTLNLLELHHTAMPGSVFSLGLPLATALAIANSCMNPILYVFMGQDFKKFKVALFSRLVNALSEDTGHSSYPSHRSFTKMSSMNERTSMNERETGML
# Experiment: Ca2+ mobilization (CellLux imaging) agonist assay in HEK293A cells expressing CMKLR1 and Gα15
# Format: cell-based
# Condition info: Ca2+ mobilization, CMKLR1; decimal comma
Square brackets hold non-standard residues; d marks the D form. Peptide text beside a SMILES is read from it.

Compound	max response
CC(C)C[C@H](NC(=O)[C@@H]1CCCN1)C(=O)N[C@H](CCC(N)=O)C(=O)N[C@@H](Cc1ccc(O)cc1)C(=O)N1CCC[C@H]1C(=O)N[C@@H](Cc1ccc(O)cc1)C(=O)N[C@H](CS)C(=O)N[C@@H](CC(C)C)C(=O)N[C@H](Cc1ccccc1)C(=O)O [compound 149] (H-PL[dQ]YPY[dC]L[dF]-OH; N-terminus assumed)	1,51 DF/F0
C[C@H](NC(=O)[C@H](Cc1ccc(O)cc1)NC(=O)[C@@H](CCC(N)=O)NC(=O)CNC(=O)[C@@H]1CCCN1C(=O)[C@@H](Cc1ccc(O)cc1)NC(=O)[C@@H](N)Cc1ccc(O)cc1)C(=O)N[C@@H](Cc1ccc(O)cc1)C(=O)N[C@@H](CO)C(N)=O [compound 19] (H-Y[dY]PG[dQ]YAYS-NH2; N-terminus assumed)	0,42 DF/F0
CC(C)C[C@H](NC(=O)[C@H](C)NC(=O)[C@H](Cc1ccc(O)cc1)NC(=O)[C@@H](CCC(N)=O)NC(=O)CNC(=O)[C@@H]1CCCN1C(=O)[C@H](CC(C)C)NC(=O)[C@@H](N)Cc1ccc(O)cc1)C(=O)N[C@H](Cc1ccccc1)C(=O)O [compound 135] (H-YLPG[dQ]YAL[dF]-OH; N-terminus assumed)	1,48 DF/F0

====

# System name: human CMKLR1 (Homo sapiens, UniProt Q99788)
# Construct: host or cells: HEK293A (Invitrogen), stably expressing human Gα15
# Experiment: Ca2+ mobilization (CellLux imaging) agonist assay in HEK293A cells expressing CMKLR1 and Gα15
# Format: cell-based
# Condition info: Ca2+ mobilization, CMKLR1; decimal comma
Square brackets hold non-standard residues; d marks the D form. Peptide text beside a SMILES is read from it.
# max response annotations

Compound	max response
CC(C)C[C@H](NC(=O)[C@@H](N)Cc1ccc(O)cc1)C(=O)N1CCC[C@H]1C(=O)N[C@H](CC(C)C)C(=O)NCC(=O)N[C@@H](Cc1ccc(O)cc1)C(=O)N[C@@H](C)C(=O)N1CCC[C@@H]1C(=O)N[C@H](Cc1ccccc1)C(=O)O [compound 151] (H-YLP[dL]GYA[dP][dF]-OH; N-terminus assumed)	1,47 DF/F0
C[C@H](NC(=O)[C@H](Cc1ccccc1)NC(=O)[C@H](C)NC(=O)[C@@H](N)Cc1ccccc1)C(=O)N[C@@H](Cc1ccccc1)C(=O)N[C@H](CO)C(=O)N[C@@H](Cc1ccccc1)C(=O)N[C@@H](C)C(=O)N[C@@H](Cc1ccc(O)cc1)C(=O)O [compound 117] (H-FAFAF[dS]FAY-OH; N-terminus assumed)	0,87 DF/F0
C[C@H](NC(=O)[C@H](Cc1ccccc1)NC(=O)[C@H](CCC(N)=O)NC(=O)[C@H]1CCCN1C(=O)CNC(=O)[C@H](Cc1ccccc1)NC(=O)[C@@H](N)Cc1ccc(O)cc1)C(=O)N[C@@H](Cc1ccccc1)C(=O)N[C@@H](CO)C(N)=O [compound 14] (H-YFG[dP]QFAFS-NH2; N-terminus assumed)	1,34 DF/F0
CC(C)C[C@H](NC(=O)CN)C(=O)N[C@@H](CCC(N)=O)C(=O)N[C@H](CCC(N)=O)C(=O)N[C@@H](Cc1ccccc1)C(=O)N[C@@H](Cc1ccc(O)cc1)C(=O)N[C@H](Cc1c[nH]c2ccccc12)C(=O)NCC(=O)N[C@H](Cc1ccccc1)C(=O)O [compound 132] (H-GLQ[dQ]FY[dW]G[dF]-OH; N-terminus assumed)	1,82 DF/F0
CC(C)C[C@H](NC(=O)[C@H](N)Cc1ccc(O)cc1)C(=O)N1CCC[C@H]1C(=O)N[C@H](CO)C(=O)N[C@@H](CCC(N)=O)C(=O)N[C@@H](Cc1ccc(O)cc1)C(=O)N[C@@H](C)C(=O)N[C@@H](Cc1ccccc1)C(=O)N[C@H](Cc1ccccc1)C(=O)O [compound 120] (H-[dY]LP[dS]QYAF[dF]-OH; N-terminus assumed)	1,97 DF/F0
CC(C)[C@H](N)C(=O)N1CCC[C@H]1C(=O)NCC(=O)N[C@@H](CCC(N)=O)C(=O)N[C@@H](Cc1ccc(O)cc1)C(=O)N[C@@H](C)C(=O)N[C@@H](Cc1ccccc1)C(=O)N[C@H](CO)C(=O)N[C@H](CO)C(=O)O [compound 99] (H-VPGQYAF[dS][dS]-OH; N-terminus assumed)	1,7 DF/F0
